Tested on: DU-145
experiment.description: NCI tumour cell line growth inhibition, 48 h
The source made the active and inactive calls. No stated cut-off is given here; in the data, active = GI50 up to about 1.1 µM and inactive = higher.
readout.label: GI50

{"molecule": "CC(=O)N1N=C(c2ccc3ccccc3c2O)CC1c1ccc(N(C)C)cc1 (stereo not drawn)", "GI50": "> 100 µM (inactive)"}

*Q* Tell me the measured GI50 of Cc1ccc(O)c(-c2cc(-c3ccccc3)nc(/N=C\c3ccccc3)n2)c1 , please.
*A* > 100 µM (inactive)

====

Test system: UO-31
experiment.description: NCI tumour cell line growth inhibition, 48 h
Activity calls are given as the source filed them. Cut-off read from the data, not from the text of the source: active = GI50 up to about 1.1 µM and inactive = higher.
The entries below come with measured GI50 values attached.

{"compound": "Cc1cc(N(CCC#N)CCC#N)ccc1/N=N/c1ccccc1[N+](=O)[O-]", "GI50": "> 100 µM (inactive)"}
{"compound": "Cc1cccc(C)c1N1C(=O)C(=O)C(c2nc3ccccc3s2)/C(=N/c2cccc3c(=O)[nH][nH]c(=O)c23)C1=O (configuration not stated)", "GI50": "> 100 µM (inactive)"}
{"compound": "COc1cc(COC(=O)N2CCC2C(=O)O)c([N+](=O)[O-])cc1OC (configuration not stated)", "GI50": "> 100 µM (inactive)"}
{"compound": "CC1(C)O[C@@H](CP(c2ccccc2)c2ccccc2)[C@H](CP(c2ccccc2)c2ccccc2)O1", "GI50": "> 10 µM (inactive)"}
{"compound": "Cc1c(Br)c(Br)c(C)[s+]1[O-]", "GI50": "13.6 µM (inactive)"}
{"compound": "O=C(CSc1nnc(SCC(=O)NN=C2CCCCC2)s1)NN=C1CCCCC1", "GI50": "> 100 µM (inactive)"}
{"compound": "CC(C)N1C(C)[C@@H](c2ccccc2)O[P@@]1(=O)CC1=CCCCC1 (some centres not stated)", "GI50": "> 100 µM (inactive)"}
{"compound": "COC(=O)[C@@](NC(=O)OCc1ccccc1)([C@H](C)O)C(F)(F)F", "GI50": "> 100 µM (inactive)"}

*Q* Quick one: GI50 of COc1cc(/C=C\c2ccc(SC)cc2)cc(OC)c1OC ?
*A* 0.104 µM (active)

*Q* What does the record list as GI50 for O=C1Nc2ccc(Br)cc2/C1=N/c1ccc(Cl)cc1 ?
*A* 13.5 µM (inactive)

*Q* Entry CCCCCCCCSC(=O)NCCCC : reported GI50 = ?
*A* 19.6 µM (inactive)

*Q* What does the data say about its GI50? Entry: Cc1ccc2ccccc2c1CC1S(=O)(=O)OCCOS1(=O)=O
*A* 14.1 µM (inactive)

====

Test system: MCF7
experiment.description: NCI tumour cell line growth inhibition, 48 h
Activity calls are given as the source filed them. Cut-off read from the data, not from the text of the source: active = GI50 up to about 1.1 µM and inactive = higher.
Write down the outcome that applies. Available outcomes: true (1) for active, false (0) for inactive

Please review the following examples before continuing.
{"compound": "CC1(C)C(=O)/C(=C/c2ccccc2)C(C)(C)C1(C)C", "system": "MCF7", "assigned.label": "false (0)"}
{"compound": "C/C=C/C/C=C/CCC(=O)C1OC1C(N)=O (stereo not given)", "system": "MCF7", "assigned.label": "false (0)"}
{"compound": "Cc1cn(C(=O)NC23CC4CC(CC(C4)C2)C3)c(=O)[nH]c1=O", "system": "MCF7", "assigned.label": "false (0)"}
{"compound": "Cn1c2ccccc2c2c3c(=O)[nH][nH]c(=O)c3c3c4ccccc4n(C)c3c21", "system": "MCF7", "assigned.label": "true (1)"}

Now look at this entry.
*Q* Outcome logged for CC(=O)O[C@H]1CC[C@@]2(C)C(=CC[C@@H]3[C@@H]2CC[C@]2(C)c4nc(Cl)ccc4C[C@@H]32)C1 in this assay:
*A* true (1)

Reference source for all entries: ChEMBL document CHEMBL1201862
